# protocol.details: MRT (0 to t) in Sprague-Dawley rat at 10 mg/kg, po measured upto 24 hrs by LC-MS/MS analysis
# Format: ADME, organism-based
# experimental.context: in vivo
quantity.measured: MRT last at 24 h (h)
Entry rule: numbers only, all in h.

Problem: Using the record for "NC(=O)c1sc(-c2ccnc(NC(=O)C3CC3)c2)nc1OCCCC1CCN(Cc2ccccc2)CC1" , report its MRT last at 24 h.
Result: 9.2

Problem: Would you kindly repeat that for "NC(=O)c1sc(-c2ccnc(NC(=O)C3CC3)c2)nc1OCC1CCN(Cc2ccccc2)CC1" ?
Result: 8.1

Problem: Would you kindly repeat that for "NC(=O)c1sc(-c2ccnc(NC(=O)C3CC3)c2)nc1OCCCC1CCN(Cc2ccc(F)cc2)CC1" ?
Result: 9.9

* * *

# target.entity: Mitogen-activated protein kinase 13 (Homo sapiens)
# Sequence (O15264 whole entry): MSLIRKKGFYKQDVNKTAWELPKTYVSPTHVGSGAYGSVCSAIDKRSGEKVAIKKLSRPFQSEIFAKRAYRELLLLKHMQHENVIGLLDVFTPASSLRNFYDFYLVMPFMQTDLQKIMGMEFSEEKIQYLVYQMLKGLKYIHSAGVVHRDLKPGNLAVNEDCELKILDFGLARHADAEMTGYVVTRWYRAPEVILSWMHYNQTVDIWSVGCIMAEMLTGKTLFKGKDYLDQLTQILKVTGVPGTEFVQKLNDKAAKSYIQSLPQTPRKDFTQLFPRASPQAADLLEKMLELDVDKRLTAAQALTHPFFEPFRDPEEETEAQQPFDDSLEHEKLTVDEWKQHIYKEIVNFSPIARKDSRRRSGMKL
# protocol.details: Inhibition of p38MAPK delta (unknown origin) by ATP competitive based analysis
quantity.measured: IC50

Problem: Using the record for "NC(=O)c1sc(-c2ccnc(NC(=O)C3CC3)c2)nc1OCCCC1CCN(Cc2ccc(F)cc2)CC1" , report its IC50.
Result: > 300 nM

* * *

# target.entity: Mitogen-activated protein kinase 1 (Homo sapiens, UniProt P28482)
# Sequence (P28482 whole entry): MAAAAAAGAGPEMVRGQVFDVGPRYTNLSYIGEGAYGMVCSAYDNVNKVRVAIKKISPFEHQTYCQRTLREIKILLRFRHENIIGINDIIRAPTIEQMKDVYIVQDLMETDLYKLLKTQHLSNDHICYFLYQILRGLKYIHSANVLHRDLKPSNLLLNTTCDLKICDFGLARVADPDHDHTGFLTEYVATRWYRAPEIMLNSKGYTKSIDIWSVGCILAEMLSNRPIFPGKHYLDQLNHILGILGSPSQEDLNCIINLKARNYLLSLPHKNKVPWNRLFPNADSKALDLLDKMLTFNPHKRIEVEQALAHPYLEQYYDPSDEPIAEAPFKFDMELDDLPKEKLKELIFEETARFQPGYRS
# protocol.details: Inhibition of ERK2 (unknown origin) by ATP competitive based analysis
quantity.measured: IC50

Problem: Form field: IC50 recorded for "NC(=O)c1sc(-c2ccnc(NC(=O)C3CC3)c2)nc1OCCCC1CCN(Cc2ccc(F)cc2)CC1" with Mitogen-activated protein kinase 1 (Homo sapiens, UniProt P28482) (enter value)
Result: > 300 nM

* * *

Please respond with reported Cmax for every item in the list.
# protocol.details: Cmax in Sprague-Dawley rat at 5 mg/kg, iv measured upto 24 hrs by LC-MS/MS analysis
# Assay type: ADME, organism-based
# Design: route intravenous, dose 5 mg/kg, time <=24
# experimental.context: in vivo
Entry rule: numbers only, all in ng/mL.

Problem: Using the record for "NC(=O)c1sc(-c2ccnc(NC(=O)C3CC3)c2)nc1OCCCC1CCN(Cc2ccccc2)CC1" , report its Cmax.
Result: 771

Problem: Would you kindly repeat that for "NC(=O)c1sc(-c2ccnc(NC(=O)C3CC3)c2)nc1OCCCC1CCN(Cc2ccc(F)cc2)CC1" ?
Result: 1000

* * *

# protocol.details: MRT (0 to t) in Sprague-Dawley rat at 10 mg/kg, iv measured upto 24 hrs by LC-MS/MS analysis
# Type: ADME, organism-based
# experimental.context: in vivo
quantity.measured: MRT last at 24 h

Problem: Using the record for "NC(=O)c1sc(-c2ccnc(NC(=O)C3CC3)c2)nc1OCC1CCN(Cc2ccccc2)CC1" , report its MRT last at 24 h.
Result: 9.1 h
